Experimental System: Cbl-b (Homo sapiens)
Construct: Cbl-b-HiBit KI Jurkat Cells were purchased from Promega; host or cells: Cbl-b-HiBiT knock-in Jurkat cells
Method Notes: Cbl-b Degradation Method A (FACS, anti-Cbl-b antibody staining)
Assay type: cell-based
Run Parameters: Cbl-b-HiBit KI Jurkat Cells, incubated at least 20 hours; half maximal degradation; read-out: Cbl-b Degredation Method A IC50
Source text: Cbl-b Degradation Method A Cbl-b-HiBit KI Jurkat Cells were purchased from Promega, and cell media consisted of RPMI 1640 with 10% FBS and 1% pen/strep. […] The concentration of an exemplary compound that leads to half maximal degradation (DC50) as well as the maximum degradation observed (Dmax, conventionally expressed as a percentage of control) is shown below in Table 2.
# DC50 annotations

Molecule	DC50
CC1c2nc(N3CCC(O[C@H]4CC[C@H](CN5CCC6(CCN(c7cc8c(c(C(F)(F)F)c7)CN(c7cccc([C@]9(Cc%10nncn%10C)C[C@@H](C#N)C9)c7)C8=O)C6)C5)CC4)CC3)ccc2C(=O)N1C1CCC(=O)NC1=O (stereo partly shown)	5 to 50 nM
Cn1cnnc1CC1(c2cccc(N3Cc4c(cc(CN5CCC[C@H](CN6CCC(CN7CCC(CN8CCN(c9ccc%10c(c9F)CN(C9CCC(=O)NC9=O)C%10=O)CC8)CC7)CC6)C5)cc4C(F)(F)F)C3=O)c2)COC1 (stereo partly shown)	5 to 50 nM
CC(C)n1c(=O)n(C2CCC(=O)NC2=O)c2cccc(N3CCC(O[C@H]4CC[C@H](CN5CCC6(CC5)CN(Cc5cc7c(c(C(F)(F)F)c5)CN(c5cccc([C@]8(Cc9nncn9C)C[C@@H](C#N)C8)c5)C7=O)C6)CC4)CC3)c21 (stereo partly shown)	50 to 500 nM

Kindly consider the entry below.
## Task Provide DC50 value for the following molecule: Cn1cnnc1C[C@]1(c2cccc(N3Cc4c(cc(CN5CCN(C[C@H]6CC[C@H](OC7CCN(c8ccc9c(n8)n(C)c(=O)n9C8CCC(=O)NC8=O)CC7)CC6)CC5(C)C)cc4C(F)(F)F)C3=O)c2)C[C@H](C#N)C1 (stereo partly shown)
## Result 50 to 500 nM

====

Experimental System: Cbl-b (Homo sapiens, UniProt Q13191)
Construct: Cbl-b-HiBit KI Jurkat Cells were purchased from Promega; host or cells: Cbl-b-HiBiT knock-in Jurkat cells
Sequence (Q13191 whole entry): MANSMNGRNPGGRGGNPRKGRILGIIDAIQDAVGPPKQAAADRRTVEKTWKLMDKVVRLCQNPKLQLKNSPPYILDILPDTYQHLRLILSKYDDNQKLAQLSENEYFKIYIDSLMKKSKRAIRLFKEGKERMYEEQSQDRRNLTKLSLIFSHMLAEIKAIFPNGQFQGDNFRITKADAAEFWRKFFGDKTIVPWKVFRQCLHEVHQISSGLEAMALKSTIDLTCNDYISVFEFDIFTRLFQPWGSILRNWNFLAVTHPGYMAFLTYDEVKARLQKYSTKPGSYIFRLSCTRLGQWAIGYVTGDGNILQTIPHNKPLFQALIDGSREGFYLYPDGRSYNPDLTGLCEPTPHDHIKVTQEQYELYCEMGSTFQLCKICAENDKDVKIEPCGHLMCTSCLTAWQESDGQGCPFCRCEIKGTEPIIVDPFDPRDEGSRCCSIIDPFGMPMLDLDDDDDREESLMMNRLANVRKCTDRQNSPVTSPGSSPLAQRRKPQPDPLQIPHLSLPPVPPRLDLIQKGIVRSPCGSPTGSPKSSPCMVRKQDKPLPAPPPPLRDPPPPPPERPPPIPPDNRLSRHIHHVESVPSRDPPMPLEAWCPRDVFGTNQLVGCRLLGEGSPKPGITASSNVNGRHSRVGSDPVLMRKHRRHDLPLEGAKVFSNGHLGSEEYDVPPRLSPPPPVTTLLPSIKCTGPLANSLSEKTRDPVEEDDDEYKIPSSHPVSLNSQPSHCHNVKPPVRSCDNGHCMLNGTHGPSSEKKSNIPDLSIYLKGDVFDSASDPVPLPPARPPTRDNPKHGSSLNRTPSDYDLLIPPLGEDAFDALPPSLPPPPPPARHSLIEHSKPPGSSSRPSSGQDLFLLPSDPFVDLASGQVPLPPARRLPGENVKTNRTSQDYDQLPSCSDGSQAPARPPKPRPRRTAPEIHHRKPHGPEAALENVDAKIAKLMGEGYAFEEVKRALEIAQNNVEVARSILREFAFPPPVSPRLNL
Method Notes: Cbl-b Degradation Method B (Nano-Glo HiBiT lytic detection)
Type: cell-based
Run Parameters: Cbl-b-HiBit KI Jurkat Cells, incubated at least 6-24 hours; half maximal degradation; read-out: Cbl-b Degredation Method B IC50
# DC50 annotations

## Task Answer with DC50 of Cn1cnnc1CC1(c2cccc(N3Cc4c(cc(CN5CCN(c6ccc7c(c6)C(=O)N(C6CCC(=O)NC6=O)C7=O)CC5)cc4C(F)(F)F)C3=O)c2)COC1 (stereo not drawn) measured for Cbl-b (Homo sapiens, UniProt Q13191).
## Result 50 to 500 nM

## Task Answer with DC50 of COc1ccc(N2CCC(CN3CCN(Cc4cc5c(c(C(F)(F)F)c4)CN(c4cccc(C6(Cc7nncn7C)COC6)c4)C5=O)CC3)CC2)cc1C(=O)NC1CCC(=O)NC1=O (stereo not drawn) measured for Cbl-b (Homo sapiens, UniProt Q13191).
## Result > 500 nM

## Task Answer with DC50 of Cn1cnnc1C[C@]1(c2cccc(N3Cc4c(cc(CN5CCN(C[C@H]6CC[C@H](OC7CCN(c8ccc9c(c8F)CN(C8CCC(=O)NC8=O)C9=O)CC7)CC6)CC5)cc4C(F)(F)F)C3=O)c2)C[C@H](C#N)C1 (stereo partly drawn) measured for Cbl-b (Homo sapiens, UniProt Q13191).
## Result < 5 nM
